Measured pIC50 values are reported for all entries that follow.
target: 11-beta-hydroxysteroid dehydrogenase 1 (Homo sapiens)
Sequence (P28845 whole entry): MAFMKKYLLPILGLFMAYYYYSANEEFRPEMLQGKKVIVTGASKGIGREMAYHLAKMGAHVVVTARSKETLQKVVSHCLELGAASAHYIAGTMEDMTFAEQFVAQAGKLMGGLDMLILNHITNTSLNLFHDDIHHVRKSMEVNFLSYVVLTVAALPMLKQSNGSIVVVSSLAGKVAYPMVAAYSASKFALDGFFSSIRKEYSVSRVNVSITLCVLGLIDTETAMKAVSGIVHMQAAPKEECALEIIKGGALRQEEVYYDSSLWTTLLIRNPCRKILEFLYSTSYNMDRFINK
Remember the convention: pIC50 equals -log10 of concentration in molar.

Problem: Name the reported pIC50 value associated with the compound O=S(=O)(Nc1nc(-c2ccccc2)co1)c1ccccc1
Result: 4.64

Problem: Could you do the same for Cc1c(Cl)cccc1S(=O)(=O)Nc1nc(-c2ccccc2)co1 , please?
Result: 4.76

Problem: Could you do the same for O=S(=O)(Nc1nc(-c2ccc(C(F)(F)F)cc2)co1)c1ccccc1 , please?
Result: 5.05

Problem: Could you do the same for O=C(CS(=O)(=O)c1ccccc1)c1ccc(C(F)(F)F)cc1 , please?
Result: 6.72
